As shown below, each of these molecules has a reported EC50 value.
# subjectOfTest: full length human TREX1 (Homo sapiens, UniProt Q9NSU2)
# Construct: N-terminally His-Tev tagged full length human TREX1; His-Tev (His tag with TEV protease site) (N)
# Sequence (Q9NSU2 1-314): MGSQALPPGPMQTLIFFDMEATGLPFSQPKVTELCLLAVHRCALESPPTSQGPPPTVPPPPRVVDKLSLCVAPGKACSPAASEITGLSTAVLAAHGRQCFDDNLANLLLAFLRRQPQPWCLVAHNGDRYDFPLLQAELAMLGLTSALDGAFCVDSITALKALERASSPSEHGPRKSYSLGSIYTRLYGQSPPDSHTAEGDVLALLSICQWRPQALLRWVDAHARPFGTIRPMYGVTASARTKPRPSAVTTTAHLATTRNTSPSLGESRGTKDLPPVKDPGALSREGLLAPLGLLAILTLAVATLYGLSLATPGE
# methodSummary: TREX1 Biochemical Assay (fluorescence assay, degradation of dsDNA substrate)
# runParameters: 150 pM TREX1, 60 nM dsDNA substrate, 25 minutes at room temperature; read-out: hTREX1 EC50
# Experimental: Degradation of the dsDNA liberates free fluorophore to produce a fluorescent signal. […] After a 5-minute incubation at room temperature, plates were read in a laser sourced Envision (Perkin-Elmer), measuring fluorescence at 615 nm following excitation w/570 nm light. […]
quantity: EC50

>>> print(df.to_string())
                                smilesentry          result
0  COC(=O)CC[C@@H](c1ccccc1Cl)N(Cc1cccnc1)C(=O)c1cc(F)cc(F)c1        < 100 nM
1  CC[C@@H](c1ccc(OC)c(OC)c1Cl)N(Cc1ccc(C(=O)O)nc1)C(=O)c1cc(F)cc(F)c1        < 100 nM
2  O=C(c1cc(F)c(F)cc1F)N(Cc1cccnc1)Cc1ccc(Cl)cc1Cl      > 10000 nM
3  O=C(c1cc(F)cc(F)c1)N(Cc1ccc(-c2cc(=O)[nH][nH]2)nc1)Cc1ccccc1Cl  100 to 1000 nM

---

# subjectOfTest: human TREX2 (residues M44-A279) (Homo sapiens)
# Construct: human TREX2 (residues M44-A279, expressed in E. coli); His-Tev (His tag with TEV protease site) (N)
# Sequence (Q9BQ50 44-279 isoform Q9BQ50-1): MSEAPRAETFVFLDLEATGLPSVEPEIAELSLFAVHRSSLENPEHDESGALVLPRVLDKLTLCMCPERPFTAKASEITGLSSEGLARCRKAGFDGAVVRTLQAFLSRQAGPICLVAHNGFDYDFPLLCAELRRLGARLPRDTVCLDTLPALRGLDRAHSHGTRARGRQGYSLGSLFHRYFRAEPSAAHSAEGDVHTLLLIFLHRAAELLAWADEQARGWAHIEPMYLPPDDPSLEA
# methodSummary: TREX2 Biochemical Assay (fluorescence assay, degradation of dsDNA substrate)
# runParameters: 2.5 nM TREX2, 60 nM dsDNA substrate, 25 minutes at room temperature; read-out: hTREX2 EC50
quantity: EC50

>>> df
                                    molecule                             subjectoftest  quantity        result
 0  O=C(c1ccc(O)c(F)c1)N(Cc1cccnc1)Cc1cc(Cl)cc(Cl)c1  human TREX2 (residues M44-A279) (Homo sapiens)      EC50      > 100 µM
 1  O=C(c1ccc(Oc2ccc(F)cc2)cc1)N(Cc1cccnc1)Cc1cc(Cl)cc(Cl)c1  human TREX2 (residues M44-A279) (Homo sapiens)      EC50      > 100 µM
 2  O=C(c1ccc2ccccc2c1)N(Cc1cccnc1)Cc1ccc(Cl)cc1Cl  human TREX2 (residues M44-A279) (Homo sapiens)      EC50      > 100 µM
 3  O=C(c1cc(F)c(F)c(F)c1)N(Cc1cccnc1)Cc1ccc(Cl)cc1Cl  human TREX2 (residues M44-A279) (Homo sapiens)      EC50  10 to 100 µM
 4  CC(C)Oc1ccc(C(=O)N(Cc2cccnc2)Cc2ccc(Cl)cc2Cl)cc1  human TREX2 (residues M44-A279) (Homo sapiens)      EC50      > 100 µM
 5  O=C(c1ccc(Oc2ccccc2)cc1)N(Cc1cccnc1)Cc1cc(Cl)cc(Cl)c1  human TREX2 (residues M44-A279) (Homo sapiens)      EC50      > 100 µM
 6  Cc1cc(C(=O)N(Cc2cccnc2)Cc2cc(Cl)cc(Cl)c2)cc(C)c1O  human TREX2 (residues M44-A279) (Homo sapiens)      EC50      > 100 µM
 7  CC(C)(C)OC(=O)Nc1cncc(CN(Cc2cccc(Cl)c2Cl)C(=O)c2cc(F)cc(F)c2)c1  human TREX2 (residues M44-A279) (Homo sapiens)      EC50    1 to 10 µM
 8        CCC(=O)N(Cc1cccnc1)Cc1ccc(Cl)cc1Cl  human TREX2 (residues M44-A279) (Homo sapiens)      EC50      > 100 µM
 9  O=C(O)c1ccc(CN(Cc2sc(Cl)nc2Cl)C(=O)c2cc(F)cc(F)c2)cn1  human TREX2 (residues M44-A279) (Homo sapiens)      EC50  10 to 100 µM
10  O=C(O)c1ccc(CN(Cc2ccccc2C(F)(F)F)C(=O)c2cc(F)cc(F)c2)cn1  human TREX2 (residues M44-A279) (Homo sapiens)      EC50    1 to 10 µM
11  O=C(O)c1ccc(CN(Cc2ccnc(Cl)c2Cl)C(=O)c2cc(F)cc(F)c2)cn1  human TREX2 (residues M44-A279) (Homo sapiens)      EC50    1 to 10 µM
12  O=C(c1cc(F)cc(F)c1)N(Cc1cccnc1CO)Cc1cccc(Cl)c1Cl  human TREX2 (residues M44-A279) (Homo sapiens)      EC50    1 to 10 µM
13  O=C(c1cccc(F)c1)N(Cc1cccnc1)[C@@H](CO)c1ccc(Cl)cc1Cl (single isomer, unassigned)  human TREX2 (residues M44-A279) (Homo sapiens)      EC50  10 to 100 µM
14  NCCC[C@@H](c1cccc(Cl)c1Cl)N(Cc1cccnc1)C(=O)c1cc(F)cc(F)c1  human TREX2 (residues M44-A279) (Homo sapiens)      EC50  10 to 100 µM
15  O=C(c1cc(F)cc(F)c1)N(Cc1ccc(-c2cc(=O)[nH][nH]2)nc1)Cc1ccccc1Cl  human TREX2 (residues M44-A279) (Homo sapiens)      EC50  10 to 100 µM
16  O=C(O)c1ccc(CN(Cc2ccccc2OC(F)(F)F)C(=O)c2cc(F)cc(F)c2)cn1  human TREX2 (residues M44-A279) (Homo sapiens)      EC50  10 to 100 µM

---

As shown below, each of these compounds has a reported EC50 value.
# subjectOfTest: full length human TREX1 (Homo sapiens, UniProt Q9NSU2)
# Construct: N-terminally His-Tev tagged full length human TREX1; His-Tev (His tag with TEV protease site) (N)
# methodSummary: TREX1 Biochemical Assay (fluorescence assay, degradation of dsDNA substrate)
# runParameters: 150 pM TREX1, 60 nM dsDNA substrate, 25 minutes at room temperature; read-out: hTREX1 EC50
quantity: EC50

>>> df
                                smilesentry                             subjectoftest  quantity       result
0  Cn1cc(CN(Cc2ccc(C(=O)O)nc2)C(=O)c2cc(F)cc(F)c2)c(C(F)(F)F)n1  full length human TREX1 (Homo sapiens, UniProt Q9NSU2)      EC50  0.1 to 1 µM
1  O=C(c1ccc(F)cc1)N(Cc1cccnc1)Cc1ccc(Cl)cc1Cl  full length human TREX1 (Homo sapiens, UniProt Q9NSU2)      EC50      > 10 µM
2  O=C(c1cc(F)cc(F)c1)N(Cc1ccc(-c2nnn[nH]2)nc1)Cc1ccccc1Cl  full length human TREX1 (Homo sapiens, UniProt Q9NSU2)      EC50  0.1 to 1 µM
3  COc1cccc(C(=O)N(Cc2cccnc2)Cc2cc(Cl)cc(Cl)c2)c1  full length human TREX1 (Homo sapiens, UniProt Q9NSU2)      EC50      > 10 µM
